Origin of values: the supplement of paper PMC10126150

# Test system: ATP;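 also: ATP exposure 15 min at 22 °C before imaging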
# Assay Notes: switch fluorescence ratio, 500 uM ATP over buffer (Cy3 cluster intensity, sum of 5 cycles each) (fold (ratio)); higher = stronger signal-on switching upon ATP binding; sequences stand for … in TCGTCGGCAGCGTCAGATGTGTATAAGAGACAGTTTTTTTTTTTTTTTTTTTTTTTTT…TC
# Conditions: aptamer strand: ATP DNA aptamer (quencher-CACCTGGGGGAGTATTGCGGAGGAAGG + anchor), 100 nM annealed; ATP concentration: 500 uM
Reported switch fluorescence ratio values for the following sequences.
// return a plain number; no unit text

Sample answers from the record:
{"Sequence Content": "CTAAGGCATG", "switch fluorescence ratio": 1.05}
{"Sequence Content": "TAGAGTAACA", "switch fluorescence ratio": 1}
{"Sequence Content": "GCTGTCCGGA", "switch fluorescence ratio": 1.05}
{"Sequence Content": "AAGGTGGGGG", "switch fluorescence ratio": 0.991}
{"Sequence Content": "ATAGTGTGGT", "switch fluorescence ratio": 0.986}

The reported switch fluorescence ratio value, ATP, for TTGTGATCGG reads 0.978

The reported switch fluorescence ratio value, ATP, for GCAGCTGGCT reads 1.02

* * *

# Test system: ATP;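 also: ATP exposure 15 min at 22 °C before imaging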
# Assay Notes: switch fluorescence ratio, 500 uM ATP over buffer (Cy3 cluster intensity, sum of 5 cycles each) (fold (ratio)); higher = stronger signal-on switching upon ATP binding; sequences stand for … in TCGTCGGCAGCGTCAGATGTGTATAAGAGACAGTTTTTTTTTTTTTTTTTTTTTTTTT…TC
# Conditions: aptamer strand: ATP DNA aptamer (quencher-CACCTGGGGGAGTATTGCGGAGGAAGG + anchor), 100 nM annealed; ATP concentration: 500 uM
Outcome Measure: switch fluorescence ratio
// return a plain number; no unit text

Sample answers from the record:
{"Sequence Content": "TTCGTTTTGT", "switch fluorescence ratio": 0.997}
{"Sequence Content": "CTCAAGGTGA", "switch fluorescence ratio": 1.45}
{"Sequence Content": "TTTTTTCCCA", "switch fluorescence ratio": 1.01}
{"Sequence Content": "GACAGCAGGG", "switch fluorescence ratio": 1.03}

sequence ACGCCCTTTT , switch fluorescence ratio observed: 1.05

sequence TAGTTATTTT , switch fluorescence ratio observed: 1.01

sequence TCAGCGAAAT , switch fluorescence ratio observed: 0.99

sequence AAAGGTGGGG , switch fluorescence ratio observed: 1

* * *

Reported switch fluorescence ratio values for the following sequences.
# Tested on: ATP;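 also: ATP exposure 15 min at 22 °C before imaging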
# Assay Notes: switch fluorescence ratio, 500 uM ATP over buffer (Cy3 cluster intensity, sum of 5 cycles each) (fold (ratio)); higher = stronger signal-on switching upon ATP binding; sequences stand for … in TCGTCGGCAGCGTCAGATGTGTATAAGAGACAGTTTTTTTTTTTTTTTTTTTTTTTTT…TC
# Conditions: aptamer strand: ATP DNA aptamer (quencher-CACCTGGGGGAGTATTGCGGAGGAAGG + anchor), 100 nM annealed; ATP concentration: 500 uM
// return a plain number; no unit text

{"Sequence Content": "CTCTTAAGGG", "switch fluorescence ratio": 1.01}
{"Sequence Content": "TTTGACAGCG", "switch fluorescence ratio": 1.02}
{"Sequence Content": "GGGGTGAGAG", "switch fluorescence ratio": 0.993}

Note: attention shifts to another entry.
sequence GGTGGATGGC , switch fluorescence ratio observed: 1

* * *

# Tested on: ATP;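 also: ATP exposure 15 min at 22 °C before imaging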
# Assay Notes: switch fluorescence ratio, 500 uM ATP over buffer (Cy3 cluster intensity, sum of 5 cycles each) (fold (ratio)); higher = stronger signal-on switching upon ATP binding; sequences stand for … in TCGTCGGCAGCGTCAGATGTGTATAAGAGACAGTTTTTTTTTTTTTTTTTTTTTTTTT…TC
# Conditions: aptamer strand: ATP DNA aptamer (quencher-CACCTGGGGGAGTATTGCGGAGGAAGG + anchor), 100 nM annealed; ATP concentration: 500 uM
Outcome Measure: switch fluorescence ratio
// return a plain number; no unit text

Sample answers from the record:
{"Sequence Content": "GGACGCCTTG", "switch fluorescence ratio": 0.976}
{"Sequence Content": "ATGGGGTAAT", "switch fluorescence ratio": 1.01}
{"Sequence Content": "AGGCACAGAA", "switch fluorescence ratio": 1.02}
{"Sequence Content": "CATTTCGGGT", "switch fluorescence ratio": 0.992}
{"Sequence Content": "GAAGTTAGGG", "switch fluorescence ratio": 0.981}

sequence ATGGGGGTGC , switch fluorescence ratio observed: 0.99

sequence TTATTATACG , switch fluorescence ratio observed: 1.01

* * *

Reported switch fluorescence ratio values for the following sequences.
# System: ATP;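 also: ATP exposure 15 min at 22 °C before imaging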
# Assay Notes: switch fluorescence ratio, 500 uM ATP over buffer (Cy3 cluster intensity, sum of 5 cycles each) (fold (ratio)); higher = stronger signal-on switching upon ATP binding; sequences stand for … in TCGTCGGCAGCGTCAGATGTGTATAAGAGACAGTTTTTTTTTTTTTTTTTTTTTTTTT…TC
# Conditions: aptamer strand: ATP DNA aptamer (quencher-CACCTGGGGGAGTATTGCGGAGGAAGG + anchor), 100 nM annealed; ATP concentration: 500 uM
// return a plain number; no unit text

Sample answers from the record:
{"Sequence Content": "GGAGTCATTT", "Assayed System": "ATP", "Outcome Measure": "switch fluorescence ratio", "Measurement": 1}
{"Sequence Content": "TTGGTCTATG", "Assayed System": "ATP", "Outcome Measure": "switch fluorescence ratio", "Measurement": 0.986}
{"Sequence Content": "GCCGAAGGGG", "Assayed System": "ATP", "Outcome Measure": "switch fluorescence ratio", "Measurement": 1}
{"Sequence Content": "AGAGTCGTGC", "Assayed System": "ATP", "Outcome Measure": "switch fluorescence ratio", "Measurement": 0.997}
{"Sequence Content": "TTGGTCTTTT", "Assayed System": "ATP", "Outcome Measure": "switch fluorescence ratio", "Measurement": 0.976}
{"Sequence Content": "TTTCATAGTC", "Assayed System": "ATP", "Outcome Measure": "switch fluorescence ratio", "Measurement": 1}
{"Sequence Content": "GGATGGCTCG", "Assayed System": "ATP", "Outcome Measure": "switch fluorescence ratio", "Measurement": 0.993}
{"Sequence Content": "TTATTTGGCC", "Assayed System": "ATP", "Outcome Measure": "switch fluorescence ratio", "Measurement": 0.997}

The reported switch fluorescence ratio value, ATP, for TGAAATAGGA reads 1.01

The reported switch fluorescence ratio value, ATP, for AGGTGTCTTG reads 1.14

* * *

# Test system: ATP;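 also: ATP exposure 15 min at 22 °C before imaging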
# Assay Notes: switch fluorescence ratio, 500 uM ATP over buffer (Cy3 cluster intensity, sum of 5 cycles each) (fold (ratio)); higher = stronger signal-on switching upon ATP binding; sequences stand for … in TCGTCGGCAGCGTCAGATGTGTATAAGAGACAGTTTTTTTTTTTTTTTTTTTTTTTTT…TC
# Conditions: aptamer strand: ATP DNA aptamer (quencher-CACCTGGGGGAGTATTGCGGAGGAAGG + anchor), 100 nM annealed; ATP concentration: 500 uM
Outcome Measure: switch fluorescence ratio
// return a plain number; no unit text

Sample answers from the record:
{"Sequence Content": "TGATAGACAT", "switch fluorescence ratio": 0.988}
{"Sequence Content": "TAATTGGAGA", "switch fluorescence ratio": 0.989}

Note: attention shifts to another entry.
sequence CGGCCGGGGA , switch fluorescence ratio observed: 1.14

* * *

Reported switch fluorescence ratio values for the following sequences.
# Tested on: ATP;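 also: ATP exposure 15 min at 22 °C before imaging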
# Assay Notes: switch fluorescence ratio, 500 uM ATP over buffer (Cy3 cluster intensity, sum of 5 cycles each) (fold (ratio)); higher = stronger signal-on switching upon ATP binding; sequences stand for … in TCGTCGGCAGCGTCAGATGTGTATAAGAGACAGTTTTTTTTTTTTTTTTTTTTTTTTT…TC
# Conditions: aptamer strand: ATP DNA aptamer (quencher-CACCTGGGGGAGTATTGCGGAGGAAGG + anchor), 100 nM annealed; ATP concentration: 500 uM
// return a plain number; no unit text

{"Sequence Content": "AACAGAGTAG", "Assayed System": "ATP", "switch fluorescence ratio": 0.976}
{"Sequence Content": "CGGTTCCGTA", "Assayed System": "ATP", "switch fluorescence ratio": 0.971}
{"Sequence Content": "GGCTTGAGGG", "Assayed System": "ATP", "switch fluorescence ratio": 0.942}
{"Sequence Content": "AATTACCATC", "Assayed System": "ATP", "switch fluorescence ratio": 1.01}
{"Sequence Content": "CCGCTAGTGG", "Assayed System": "ATP", "switch fluorescence ratio": 1.2}

sequence GTTTTGGTTG , switch fluorescence ratio observed: 1.01

sequence TTCGTTTAAT , switch fluorescence ratio observed: 0.999

sequence AGTATGGGTA , switch fluorescence ratio observed: 1

sequence CTCGGTTGAC , switch fluorescence ratio observed: 1.07

sequence CTTGGGTGAA , switch fluorescence ratio observed: 1.09

sequence ATAGAACGGG , switch fluorescence ratio observed: 1.01
